assay: A qHTS for Small Molecule Inhibitors of Shiga Toxin; conditions: Vero cells, Shiga toxin protein synthesis inhibition reporter; at 38.7 µM
In all, about 290,000 compounds went through this assay and about 27,000 (9.3%) were called active. Rule as the data show it: active = inhibition mostly above about 28% (no sharp cut-off); inactive = mostly below about 43%. This is one part of a sample in which actives are shown more often than they occur.
Valid outcomes are listed here; reply with one: active, inactive

Answered examples (3):
O=C(CCCCCn1c(=S)[nH]c2ccsc2c1=O)NC1CCCCC1: inactive
COc1ccccc1NC(=O)CCC(=O)N1CC(C)Oc2ccc(C)cc21 (stereo not drawn): inactive
S=C(c1ccccc1)N1CCCC1: inactive

[ask] Short answer needed: outcome of this test for COc1cccc(NC(=O)C/C(C)=N/NC(=O)C2CCCCC2)c1 ?
[reply] inactive

[ask] Short answer needed: outcome of this test for COc1cccc(NC(=S)NCc2ccccn2)c1 ?
[reply] active

[ask] Short answer needed: outcome of this test for O=C(NCCCn1ccnc1)C1CCCN(S(=O)(=O)c2cc(Cl)ccc2Cl)C1 (stereo not drawn) ?
[reply] inactive

[ask] Short answer needed: outcome of this test for NNC(=O)CSc1nnc(-c2ccccc2)n1-c1ccccc1 ?
[reply] inactive

----------
experiment: A qHTS for Small Molecule Inhibitors of Shiga Toxin; settings: Vero cells, Shiga toxin protein synthesis inhibition reporter; at 38.7 µM, stronger effect = higher value
Hit rate of the full screen: of about 290,000 compounds, about 27,000 (9.3%) were called active. Shown is part of a subset that was picked to be rich in actives.
Measure: inhibition (%)
Report as a plain number; the unit % is understood.

CCc1ccccc1NC(=O)c1ccc2snnc2c1: -5.07
CN(C)CCCNC(=O)c1cc(C(=O)Cc2ccc(Cl)cc2)c[nH]1: -5.52
Cc1nn(C(C)(C)C)c(OC(=O)CC(C)C)c1S(=O)(=O)c1ccccc1: -3.07

[ask] Consider the compound O=C(Nc1cccc(Br)c1)c1ccc2snnc2c1 and give its measured inhibition.
[reply] 64

[ask] Consider the compound C[C@H](NC(=O)C1CC(=O)N(c2ccc3c(c2)OCO3)C1)C(=O)NCc1ccco1 (stereo partly specified) and give its measured inhibition.
[reply] -4.62

[ask] Consider the compound CCCCNC(=O)CN1C(=O)NC(Cc2ccccc2)(Cc2ccccc2)C1=O and give its measured inhibition.
[reply] 2.69

----------
# inhibition values compiled below
assay: A qHTS for Small Molecule Inhibitors of Shiga Toxin; conditions: Vero cells, Shiga toxin protein synthesis inhibition reporter; at 38.7 µM, stronger effect = higher value
About 27,000 (9.3%) of roughly 290,000 compounds were called active. Many of the other results were omitted from the sample, so actives are more common in it than they were.

Take a look at these entries with their results.
CN(c1ccc(OCC(=O)O)cc1)S(=O)(=O)c1ccc2ccccc2c1: -4.36% (inactive)
CCc1nnc(NC(=O)CCC(=O)N2CCN(c3cc(C)ccc3C)CC2)s1: 2.43% (inactive)
COC(=O)c1ccc(NC(=O)CSc2nnc(C3CC3)n2C)cc1: 17.5% (inactive)
Cc1ccc(C(=O)c2c(NC(=O)c3ccncc3)sc3c2CCCC3)cc1: -0.844% (inactive)
Cc1cccnc1NC(=O)Cn1c(=O)oc2ccccc21: 30.2% (inactive)
CCOC(=O)c1[nH]c2c(c1C)C(=O)CC(c1ccc(N(C)C)cc1)C2 (stereo not drawn): 2.86% (active)

[ask] Consider the compound Cc1ccc(-n2c(C)cc(/C=N\NC(=O)CC(=O)NC(C)C)c2C)cc1 and give its measured inhibition.
[reply] 21.4% (inactive)

[ask] Consider the compound COc1ccc2cc(C(=O)NCC3CCCO3)[nH]c2c1 (stereo not drawn) and give its measured inhibition.
[reply] 81.7% (active)

[ask] Consider the compound CC(=O)N(C)c1ccc(NC(=O)Nc2cccc3ccccc23)cc1 and give its measured inhibition.
[reply] 77.5% (active)

[ask] Consider the compound O=C(O)Cc1ccc(NC(=O)Nc2cccc3ccccc23)cc1 and give its measured inhibition.
[reply] -1.4% (inactive)

[ask] Consider the compound COc1ccc(N(CC(=O)N2CCOCC2)S(=O)(=O)c2ccccc2)cc1Cl and give its measured inhibition.
[reply] -9.7% (inactive)

[ask] Consider the compound COc1ccc(SCc2noc(C(=O)NCC3CCCO3)c2C(=O)O)cc1 (stereo not drawn) and give its measured inhibition.
[reply] -6.14% (inactive)

[ask] Consider the compound COc1ccc(CCNC(=O)c2cnc(Cl)c(Cl)c2)cc1 and give its measured inhibition.
[reply] -1.83% (inactive)

[ask] Consider the compound CC(=O)N(C)c1ccc(NC(=O)C(F)(F)F)cc1 and give its measured inhibition.
[reply] 13.5% (inactive)

[ask] Consider the compound CCOC(=O)C1(Cc2cccc(OC)c2)CCN(C(C)COC)CC1 (stereo not drawn) and give its measured inhibition.
[reply] -0.932% (inactive)

[ask] Consider the compound O=C1NC(c2ccncc2)Nc2sc3c(c21)CCCC3 (stereo not drawn) and give its measured inhibition.
[reply] 64.1% (active)

[ask] Consider the compound C/C(=C\c1ccccc1)C1NC(=O)c2c(sc3c2CCCC3)N1 (stereo not drawn) and give its measured inhibition.
[reply] 34.2% (inactive)

[ask] Consider the compound O=C(CSc1nc(Nc2ccccc2)nc(N2CCOCC2)n1)Nc1cc(Cl)ccc1O and give its measured inhibition.
[reply] -4.02% (inactive)

[ask] Consider the compound Cc1cc(C)cc(N(CC(=O)NC2CCCC2)C(=O)CCC(=O)Nc2nccs2)c1 and give its measured inhibition.
[reply] 20.2% (inactive)

[ask] Consider the compound Cc1cccc(-n2c(C)cc(/C=N/NC(N)=S)c2C)c1 and give its measured inhibition.
[reply] -4.48% (inactive)

[ask] Consider the compound Cc1cccc(-n2c(C)cc(/C=N\NC(=O)c3cccs3)c2C)c1 and give its measured inhibition.
[reply] 85.9% (active)

[ask] Consider the compound CN(C)c1cccc(C(=O)N2CCC(n3nccc3NC(=O)C3CCOC3)CC2)c1 (stereo not drawn) and give its measured inhibition.
[reply] -1.93% (inactive)

[ask] Consider the compound COc1ccccc1-n1c(SCC(=O)Nc2cccc(C(=O)O)c2)nnc1-c1ccccc1O and give its measured inhibition.
[reply] 6.46% (inactive)

----------
# inhibition values compiled below
test: A qHTS for Small Molecule Inhibitors of Shiga Toxin; conditions: Vero cells, Shiga toxin protein synthesis inhibition reporter; at 38.7 µM, stronger effect = higher value
The campaign covered roughly 290,000 compounds. About 27,000 (9.3%) were called active. Only a selection was taken, and actives are over-represented in it overall.
Report as a plain number; the unit % is understood.

Take a look at these entries with their results.
O=C(COc1ccccc1Cl)N1CCCCCCC1: 36.9
O=C(O)CCCN1C(=O)C2C3c4ccccc4C(c4ccccc43)[C@@H]2C1=O (stereo not given in full): -10.8
CC(NC(=O)COc1cccnc1[N+](=O)[O-])c1ccc(Cl)cc1Cl (stereo not given): -9.36
Cc1ccnc(NS(=O)(=O)c2ccc(NC(=O)c3oc4ccc(F)cc4c3C)cc2)n1: -7.64
O=C1NN(c2ccccc2)C(=O)/C1=C/c1ccc(-c2cccc(C(=O)O)c2)o1: 18.2

[ask] Consider the compound N=c1c2c(-c3ccccc3)c(-c3ccccc3)n(Cc3ccccc3)c2ncn1CCCO and give its measured inhibition.
[reply] -13.5

[ask] Consider the compound Clc1ccc(-c2nc3ccccn3c2CN2CCSCC2)cc1 and give its measured inhibition.
[reply] 20.5

[ask] Consider the compound O=C(O)C(c1ccccc1)N1C(=O)/C(=C\c2ccc(-c3cccc(Cl)c3)o2)SC1=S (stereo not given) and give its measured inhibition.
[reply] -2.95

[ask] Consider the compound O=C(Cn1nc(C(=O)O)c2ccccc2c1=O)Nc1ccc(F)cc1 and give its measured inhibition.
[reply] -3.59

[ask] Consider the compound O=C1c2ccccc2NC(c2ccc(-c3cccc(Cl)c3)o2)N1O (stereo not given) and give its measured inhibition.
[reply] 58.1

----------
test: A qHTS for Small Molecule Inhibitors of Shiga Toxin; conditions: Vero cells, Shiga toxin protein synthesis inhibition reporter; at 38.7 µM
The whole screen tested about 290,000 compounds, of which about 27,000 (9.3%) were called active. Cut-off read from the data, not from the text of the source: active = inhibition mostly above about 28% (no sharp cut-off); inactive = mostly below about 43%. Only a selection was taken, and actives are over-represented in it overall.
Valid outcomes are listed here; reply with one: class 1 = active, class 0 = inactive

Answered examples (5):
CC(C)C(=O)Nc1c2c(nn1-c1ccccc1)CSC2: class 0
COc1ccc(CNC(=O)/C(C#N)=C/c2cccc(OC)c2OC)cc1: class 0
CCOC(=O)C(Cc1ccc(N)cc1)N1C(=O)c2ccccc2C1=O (stereo unspecified): class 0
Cc1ccc(N(C(=O)Cc2cccs2)C(C(=O)NCC2CCCO2)c2ccncc2)cc1 (stereo unspecified): class 1
Cc1cccc(N(C(=O)Cc2cccs2)C(C(=O)NCc2ccco2)c2ccncc2)c1 (stereo unspecified): class 0

[ask] Short answer needed: outcome of this test for C=CCNc1nc(N)c([N+](=O)[O-])c(NC2CCCCC2)n1 ?
[reply] class 0

----------
test: A qHTS for Small Molecule Inhibitors of Shiga Toxin; settings: Vero cells, Shiga toxin protein synthesis inhibition reporter; at 38.7 µM
Hit rate of the full screen: of about 290,000 compounds, about 27,000 (9.3%) were called active. Cut-off read from the data, not from the text of the source: active = inhibition mostly above about 28% (no sharp cut-off); inactive = mostly below about 43%. The sample holds actives, similar compounds and a random draw of the others, so the mix is not that of the screen.
Valid outcomes are listed here; reply with one: active, inactive

Answered examples (2):
O=C(O)c1ccccc1-c1ccccc1C(=O)NCCc1ccccc1: inactive
Nc1cccc(CCc2nc3ccccc3[nH]2)c1: active

[ask] Short answer needed: outcome of this test for O=C(CSc1n[nH]c(-c2cccnc2)n1)Nc1ccc(Cl)cc1 ?
[reply] inactive

[ask] Short answer needed: outcome of this test for CCCc1ccc(OCC(O)CN2CCN(C(=O)OCC)CC2)cc1 (configuration not stated) ?
[reply] inactive

[ask] Short answer needed: outcome of this test for CCCc1cc(=O)[nH]c(SCC(=O)N2C(C)CCCC2C)n1 (configuration not stated) ?
[reply] inactive

[ask] Short answer needed: outcome of this test for Cc1ccc(N=Cc2c(O)cc(C)oc2=O)c(C)c1 ?
[reply] inactive

[ask] Short answer needed: outcome of this test for COc1ccc(CCNC(=O)C(=O)NCC2OCCN2S(=O)(=O)c2ccc(F)cc2)cc1OC (configuration not stated) ?
[reply] inactive

[ask] Short answer needed: outcome of this test for CN(C)/C(=N\OC(=O)c1ccccc1)c1nonc1N ?
[reply] inactive

[ask] Short answer needed: outcome of this test for Oc1ccc2nc(Cc3ccccc3)[nH]c2c1 ?
[reply] inactive

[ask] Short answer needed: outcome of this test for NC(=O)Nc1ccccc1C(=O)NCCc1ccccc1 ?
[reply] active

[ask] Short answer needed: outcome of this test for Cc1cc(-c2n[nH]c(=S)n2/N=C/C(Br)=C/c2ccccc2)n[nH]1 ?
[reply] active

[ask] Short answer needed: outcome of this test for COCCn1c(N)c(NCc2ccccc2)c(=O)[nH]c1=O ?
[reply] inactive

The reported measurements were obtained from PubChem BioAssay AID2315.
